# System: T1, His6-MBP-PHD3 (PHD3 domain of histone demethylase KDM5A) (UniProt P29375 1609-1659)
# T1 chain: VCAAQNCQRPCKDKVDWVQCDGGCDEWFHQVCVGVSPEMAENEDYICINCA
# Assay comment: FP
Square brackets hold non-standard residues; d marks the D form. Ends that are not written are not given here. Lys(Me3) = C[N+](C)(C)CCCC[C@H](N)C(=O)O
Sorting guide: entries reporting Ki beneath 0.6 µM go in the Criterion met pile, the rest go in the Criterion not met pile.

State whether 0.6 µM exceeds Ki recorded for ART[Lys(Me3)]QTARAS [K9A] .
Criterion met

State whether 0.6 µM exceeds Ki recorded for ARA[Lys(Me3)]QTARKS [H3K4me3 10mer peptide, T3 replaced with Ala] .
Criterion not met

State whether 0.6 µM exceeds Ki recorded for ARTAQTARKS [H3 10mer peptide, K4 replaced with Ala] .
Criterion not met

State whether 0.6 µM exceeds Ki recorded for AAT[Lys(Me3)]QTARKS [H3K4me3 10mer peptide, R2 replaced with Ala] .
Criterion met

State whether 0.6 µM exceeds Ki recorded for ART[Lys(Me3)] (not fully specified) [4mer] .
Criterion not met

State whether 0.6 µM exceeds Ki recorded for ART[Lys(Me3)]ATARKS [H3K4me3 10mer peptide Q5A] .
Criterion met

State whether 0.6 µM exceeds Ki recorded for ART[Lys(Me3)]QTAR (not fully specified) [8mer] .
Criterion met
